target: Toll-like receptor 1/2 (Homo sapiens, UniProt O60603+Q15399); test: Agonist activity at TLR1/TLR2 in human THP-1 derived macrophages assessed as stimulation of TNF alpha release measured for 4 hrs by ELISA based assay relative to diprovocim-1; format: cell-based; design: concentration or dose not given beside the values; settings: filed as agonist
quantity-kind: Activity (%)

INSERT INTO measurements (chemical_structure, tested_on, reported_result) VALUES
  ('CSCC[C@H](NC(=O)OC(C)(C)C)C(=O)OCCCCCCCCCCCCNC(=O)[C@@H]1CN(C(=O)c2ccc(C(=O)N3C[C@@H](C(=O)N[C@H]4C[C@@H]4c4ccccc4)[C@H](C(=O)N[C@H]4C[C@@H]4c4ccccc4)C3)cc2)C[C@H]1C(=O)N[C@H]1C[C@@H]1c1ccccc1', 'Toll-like receptor 1/2 (Homo sapiens, UniProt O60603+Q15399)', 100),
  ('NC(=O)CCCCCCCCCCCNC(=O)[C@@H]1CN(C(=O)c2ccc(C(=O)N3C[C@@H](C(=O)N[C@H]4C[C@@H]4c4ccccc4)[C@H](C(=O)N[C@H]4C[C@@H]4c4ccccc4)C3)cc2)C[C@H]1C(=O)N[C@H]1C[C@@H]1c1ccccc1', 'Toll-like receptor 1/2 (Homo sapiens, UniProt O60603+Q15399)', 110);

The origin of these recorded values is ChEMBL document CHEMBL5143728.
